system: breast adenocarcinoma (MCF-7) cell line; assay: MTT cell viability assay, 72 h, MCF-7; format: cell-based, human; settings: MCF-7, 72 h, MTT; concentration that kills 50% of cells

{"COMPOUND": "COc1cc2oc(=O)cc(CSC#N)c2cc1OC", "LD50": ">100 µM"}
{"COMPOUND": "CSc1nc2ccccc2nc1SC", "LD50": ">100 µM"}
{"COMPOUND": "C[Se](=O)O [MSA, methylseleninic acid, reference compound]", "LD50": ">100 µM"}

====

assay: Thermogravimetric (TG) analysis of thermal stability; type: physicochemical; conditions: nitrogen, 50 to 350 °C, 10 °C/min
TG To (Tonset of thermal degradation) values, listed per item
QUANTITY_NAME: TG To (Tonset of thermal degradation) (°C)

{"CHEM_SMILES": "Cl.N=C(N)Sc1nc2ccccc2nc1S", "QUANTITY_NAME": "TG To (Tonset of thermal degradation)", "TEST_RESULT": 199.2}
{"CHEM_SMILES": "N=C(N)[Se]Cc1ccc2c(c1)C(=O)c1ccccc1C2=O", "QUANTITY_NAME": "TG To (Tonset of thermal degradation)", "TEST_RESULT": 198.2}
{"CHEM_SMILES": "N=C(N)SCc1cc2c(cc1Br)OCO2", "QUANTITY_NAME": "TG To (Tonset of thermal degradation)", "TEST_RESULT": 215.1}
{"CHEM_SMILES": "N=C(N)[Se]CN1C(=O)c2ccccc2C1=O", "QUANTITY_NAME": "TG To (Tonset of thermal degradation)", "TEST_RESULT": 255.8}
{"CHEM_SMILES": "N#C[Se]Cc1ccc(-n2cccc2)cc1", "QUANTITY_NAME": "TG To (Tonset of thermal degradation)", "TEST_RESULT": 149.4}
{"CHEM_SMILES": "O=C1c2ccccc2C(=O)N1CS", "QUANTITY_NAME": "TG To (Tonset of thermal degradation)", "TEST_RESULT": 166.0}
{"CHEM_SMILES": "N=C(N)SCc1nc2ccccc2nc1CSC(=N)N", "QUANTITY_NAME": "TG To (Tonset of thermal degradation)", "TEST_RESULT": 251.05}

====

assay: DSC successive melting-recrystallization cycles, polymorphic behaviour; type: physicochemical; set-up: key: I: Compounds that show a polymorphic phase transition into an amorphous or mainly amorphous solid form after a first melting–cooling scan; II: Compounds that change into a new polymorphic form with a different Tonset of fusion than the one observed at the first melting–recrystallization scan after cooling; III: These compounds show a fusion process without modifications in the thermal behaviour after an initial fusion–recrystallization cycle; IV: Compounds that show recrystallization or other types of phase transition of the original form into another crystalline one in the first heat scan; V: Compounds without fusion processes at the range of temperatures studied; *: fusion with decomposition; conditions: 10 °C/min
QUANTITY_NAME: DSC Behaviour (polymorphic/calorimetric behaviour)

{"MOLECULE": "N#CSCc1ccc2ccccc2n1 [VA6H, Quinolin-2-ylmethyl Thiocyanate]", "TEST_RESULT": "I"}
{"MOLECULE": "N#CSCc1cc2c(cc1Br)OCO2", "TEST_RESULT": "IV"}
{"MOLECULE": "N#CSCN1C(=O)c2ccccc2C1=O", "TEST_RESULT": "I"}
{"MOLECULE": "CSc1ccc2ccccc2n1", "TEST_RESULT": "I"}
{"MOLECULE": "Cc1noc(C)c1C[Se]C(=N)N", "TEST_RESULT": "V"}
{"MOLECULE": "N=C(N)SCc1cc2c(cc1Br)OCO2", "TEST_RESULT": "I"}
{"MOLECULE": "Sc1nc2ccccc2s1", "TEST_RESULT": "III"}
{"MOLECULE": "N#CSCc1ccc2c(c1)C(=O)c1ccccc1C2=O", "TEST_RESULT": "V"}
{"MOLECULE": "Sc1ccnc(S)n1", "TEST_RESULT": "V"}
{"MOLECULE": "SCc1cc2c(cc1Br)OCO2", "TEST_RESULT": "I"}
{"MOLECULE": "[SeH]c1nc2ccccc2s1", "TEST_RESULT": "I"}
{"MOLECULE": "O=C1c2ccccc2C(=O)N1CS", "TEST_RESULT": "III"}
{"MOLECULE": "N=C(N)[Se]CN1C(=O)c2ccccc2C1=O", "TEST_RESULT": "IV"}
{"MOLECULE": "N=C(N)[Se]Cc1ccc([N+](=O)[O-])o1", "TEST_RESULT": "*"}
{"MOLECULE": "N=C(N)SCc1ccc(-n2cccc2)cc1", "TEST_RESULT": "*"}
{"MOLECULE": "N=C(N)[Se]Cc1ccc2c(c1)C(=O)c1ccccc1C2=O", "TEST_RESULT": "V"}
{"MOLECULE": "Cc1noc(C)c1CSC(=N)N", "TEST_RESULT": "II"}
{"MOLECULE": "CSc1nc2ccccc2s1", "TEST_RESULT": "V"}
{"MOLECULE": "N#C[Se]Cc1ccc(-n2cccc2)cc1", "TEST_RESULT": "*"}
{"MOLECULE": "N=C(N)[Se]Cc1ccc(-n2cccc2)cc1", "TEST_RESULT": "*"}
{"MOLECULE": "N=C(N)[Se]Cc1ccc2ccccc2n1", "TEST_RESULT": "I"}
{"MOLECULE": "COc1cc2oc(=O)cc(CSC(=N)N)c2cc1OC", "TEST_RESULT": "*"}
{"MOLECULE": "[SeH]Cc1c2ccccc2nc2ccccc12", "TEST_RESULT": "V"}
{"MOLECULE": "N#CSCc1c2ccccc2nc2ccccc12", "TEST_RESULT": "V"}
{"MOLECULE": "COc1cc2oc(=O)cc(C[Se]C(=N)N)c2cc1OC", "TEST_RESULT": "*"}
